Experiment: Selectivity index, ratio of CC50 for human Huh5.2 cells to EC50 for HCV genotype 3a S52
Assay type: toxicity
Settings: read-out: Ratio CC50/EC50
Property label: selectivity ratio

What the record says about O=C(CN1C(=O)NC2(CCCCc3ccccc32)C1=O)NO (stereo not drawn) : selectivity ratio is 2480

response.value for O=C(CN1C(=O)NC2(CCCc3ccccc32)C1=O)NO (stereo not drawn) (field: selectivity ratio) = > 84

Lab note: O=C(CN1C(=O)NC2(CCc3ccccc32)C1=O)NO (stereo not drawn) gave selectivity ratio of > 67

* * *

Exercise: for every item that follows, state its recorded CC50 at 144 h.
Assay: Cytotoxicity against rat L6 cells assessed as reduction in cell viability incubated for 6 days by resazurin dye based fluorescence assay

Input O=C1NC(=O)C2(CCc3ccccc32)N1 (stereo not given) . Output CC50 at 144 h: > 500 µM

Recorded result, CN1C(=O)N(CC(=O)NO)C(=O)C12CCCc1ccccc12 (stereo not given) , CC50 at 144 h: 28.2 µM

Per the record, CN1C(=O)N(CC(=O)NO)C(=O)C12CCc1ccccc12 (stereo not given) has CC50 at 144 h of 550 µM

Field CC50 at 144 h (entry O=C(CN1C(=O)N(Cc2ccccc2)C2(CCCc3ccccc32)C1=O)NO (stereo not given) ) reads 3.17 µM

// recorded CC50 at 144 h for O=C(CN1C(=O)N(Cc2ccccc2)C2(CCCCc3ccccc32)C1=O)NO (stereo not given) : 7.85 µM

// field: CC50 at 144 h; key: O=C(CN1C(=O)NC2(CCc3ccccc32)C1=O)NO (stereo not given) ; value = 268 µM

Input O=C(CN1C(=O)NC2(CCCCc3ccccc32)C1=O)NO (stereo not given) . Output CC50 at 144 h: 125 µM

CC50 at 144 h reported for this molecule CN1C(=O)N(CC(=O)NO)C(=O)C12CCCCc1ccccc12 (stereo not given) : 16.4 µM

Reported CC50 at 144 h of O=C(CN1C(=O)NC2(CCCc3ccccc32)C1=O)NO (stereo not given) : 419 µM

Field CC50 at 144 h (entry O=C(CN1C(=O)N(Cc2ccccc2)C2(CCc3ccccc32)C1=O)NO (stereo not given) ) reads 6.27 µM

* * *

Assay: Selectivity index, ratio of CC50 for human Huh5.2 cells to EC50 for HCV genotype 1b Con1
Type: toxicity
Conditions: read-out: Ratio CC50/EC50
The label depends only on selectivity ratio: yes if it is at least 30, no if it is smaller.

Input line: Determine whether measured selectivity ratio meets or exceeds 30 for O=C(CN1C(=O)N(Cc2ccccc2)C2(CCc3ccccc32)C1=O)NO (stereo not given)
Output line: yes

Input line: Decide: is the reported value of selectivity ratio for CN1C(=O)N(CC(=O)NO)C(=O)C12CCc1ccccc12 (stereo not given) equal to or greater than 30?
Output line: no

Input line: Does O=C(CN1C(=O)NC2(CCc3ccccc32)C1=O)NO (stereo not given) have a reported selectivity ratio of at least 30?
Output line: yes

Input line: Determine whether this compound has selectivity ratio no lower than 30: O=C(CN1C(=O)N(Cc2ccccc2)C2(CCCc3ccccc32)C1=O)NO (stereo not given)
Output line: no

Input line: Check the entry O=C(CN1C(=O)NC2(CCCCc3ccccc32)C1=O)NO (stereo not given) : does selectivity ratio equal or exceed 30?
Output line: yes

Input line: Would you say CN1C(=O)N(CC(=O)NO)C(=O)C12CCCCc1ccccc12 (stereo not given) shows selectivity ratio at minimum 30?
Output line: yes

Input line: Determine whether measured selectivity ratio meets or exceeds 30 for CN1C(=O)N(CC(=O)NO)C(=O)C12CCCc1ccccc12 (stereo not given)
Output line: yes

Input line: Could you verify whether the entry O=C(CN1C(=O)N(Cc2ccccc2)C2(CCCCc3ccccc32)C1=O)NO (stereo not given) shows selectivity ratio of no less than 30?
Output line: no

Input line: # check: selectivity ratio of O=C(CN1C(=O)NC2(CCCc3ccccc32)C1=O)NO (stereo not given) is greater than or equal to 30
Output line: yes
